System: HOP-62
Assay: Growth inhibition of human HOP62 cells after 48 hrs by sulforhodamine B assay
Type: functional
Conditions: HOP-62, 48 h
We begin with a simple list: items and their reported GI50.
Form entry: value (nM) — number only.

In the examples that follow, each entry is paired with its recorded GI50.
O=C(Nc1cccc(-n2cc(-c3ccncc3)c(-c3ccc(Cl)c(O)c3)n2)c1)Nc1ccc(Cl)c(C(F)(F)F)c1; 1220
COc1cc(-c2nn(-c3cccc(NC(=O)c4ccc(N5CCOCC5)c(C(F)(F)F)c4)c3)cc2-c2ccncc2)ccc1Cl; 583
COc1cc(-c2nn(-c3cccc(NC(=O)Nc4cccc(C(F)(F)F)c4)c3)cc2-c2ccncc2)ccc1Cl; 1340

Next, consider the following molecule.
I have this molecule here, `O=C(Nc1cccc(-n2cc(-c3ccncc3)c(-c3ccc(Cl)c(O)c3)n2)c1)Nc1cc(C(F)(F)F)cc(C(F)(F)F)c1` , and I need its recorded GI50.
964

====

Tested on: CCRF-CEM
Assay: Growth inhibition of human CCRF-CEM cells after 48 hrs by sulforhodamine B assay
Assay type: functional
recorded_endpoint: TGI (µM)
Give the number; µM is assumed, so skip it.

O=C(Nc1cccc(-n2cc(-c3ccncc3)c(-c3ccc(Cl)c(O)c3)n2)c1)Nc1cc(C(F)(F)F)cc(C(F)(F)F)c1; 6.78

Attention now shifts to the item below.
Please give the measured TGI for this compound: `O=C(Nc1cccc(-n2cc(-c3ccncc3)c(-c3ccc(Cl)c(O)c3)n2)c1)Nc1ccc(Cl)c(C(F)(F)F)c1`
2.7

====

Test system: CAKI-1
Assay: Growth inhibition of human CAKI-1 cells after 48 hrs by sulforhodamine B assay
Format: functional
Conditions: CAKI-1, 48 h, read-out: LC50 (the source's name)
Below, each of the molecules is paired with its reported CC50 value.
# value in µM; strip the unit string

O=C(Nc1cccc(-n2cc(-c3ccncc3)c(-c3ccc(Cl)c(O)c3)n2)c1)Nc1cc(C(F)(F)F)cc(C(F)(F)F)c1; 26.5

Give CAKI-1 CC50 for `COc1cc(-c2nn(-c3cccc(NC(=O)Nc4cc(C(F)(F)F)cc(C(F)(F)F)c4)c3)cc2-c2ccncc2)ccc1Cl`
49.3

====

Tested on: LOX IMVI
Assay: Growth inhibition of human LOXIMVI cells after 48 hrs by sulforhodamine B assay
Type: functional
Threshold check on GI50: strictly below 1000 nM is Y; on or above 1000 nM is N.

Solved entries:
O=C(Nc1cccc(-n2cc(-c3ccncc3)c(-c3ccc(Cl)c(O)c3)n2)c1)Nc1ccc(Cl)c(C(F)(F)F)c1; Y
COc1cc(-c2nn(-c3cccc(NC(=O)c4cccc(C(F)(F)F)c4)c3)cc2-c2ccncc2)ccc1Cl; N
O=C(Nc1cccc(-n2cc(-c3ccncc3)c(-c3ccc(Cl)c(O)c3)n2)c1)Nc1ccc(Cl)c(Cl)c1; Y
COc1cc(-c2nn(-c3cccc(NC(=O)c4ccc(Cl)c(C(F)(F)F)c4)c3)cc2-c2ccncc2)ccc1Cl; N

Field: below-cutoff. Rule: recorded GI50 strictly less than 1000 nM. Subject: `COc1cc(-c2nn(-c3cccc(NC(=O)Nc4ccc(Cl)c(Cl)c4)c3)cc2-c2ccncc2)ccc1Cl`
Y

====

# growth at 50 µM values compiled below
System: U-251
Assay: Growth inhibition of human U251 cells assessed as cell growth at 5X10'-5 M after 48 hrs by sulforhodamine B assay
Assay type: functional
Details: U-251, 48 h, read-out: Activity
Return type: number; implicit unit %.

Known growth at 50 µM results, listed for orientation:
COc1cc(-c2nn(-c3cccc(NC(=O)Nc4cc(C(F)(F)F)cc(C(F)(F)F)c4)c3)cc2-c2ccncc2)ccc1Cl; -78
COc1cc(-c2nn(-c3cccc(NC(=O)c4cccc(C(F)(F)F)c4)c3)cc2-c2ccncc2)ccc1Cl; 3

Can you look up the measured growth at 50 µM of `COc1cc(-c2nn(-c3cccc(NC(=O)Nc4cccc(C(F)(F)F)c4)c3)cc2-c2ccncc2)ccc1Cl` for me?
-84

Fill in the blank: the reported growth at 50 µM of `O=C(Nc1cccc(-n2cc(-c3ccncc3)c(-c3ccc(Cl)c(O)c3)n2)c1)Nc1cc(C(F)(F)F)cc(C(F)(F)F)c1` is ____.
-91

====

System: MDA-MB-468
Experiment: Growth inhibition of human MDA-MB-468 cells assessed as cell growth at 10 uM after 48 hrs by sulforhodamine B assay
Format: functional
Details: MDA-MB-468, 48 h, read-out: Activity
Item-by-item account of growth at 10 µM
Write the value in % as a bare number.

// worked examples, growth at 10 µM included
COc1cc(-c2nn(-c3cccc(NC(=O)c4cccc(C(F)(F)F)c4)c3)cc2-c2ccncc2)ccc1Cl; -19.4
O=C(Nc1cccc(-n2cc(-c3ccncc3)c(-c3ccc(Cl)c(O)c3)n2)c1)c1ccccc1; 64.1
Cc1cc(C(=O)Nc2cccc(-n3cc(-c4ccncc4)c(-c4ccc(Cl)c(O)c4)n3)c2)ccc1Br; 93.2

Which growth at 10 µM is reported for this compound? `O=C(Nc1cccc(-n2cc(-c3ccncc3)c(-c3ccc(Cl)c(O)c3)n2)c1)Nc1ccc(Cl)c(C(F)(F)F)c1`
-49.5

====

Test system: SR
Test: Growth inhibition of human SR cells after 48 hrs by sulforhodamine B assay
Assay type: functional
recorded_endpoint: TGI (nM)
Give the quantity in nM, number only.

COc1cc(-c2nn(-c3cccc(NC(=O)Nc4cc(C(F)(F)F)cc(C(F)(F)F)c4)c3)cc2-c2ccncc2)ccc1Cl; 3970
COc1cc(-c2nn(-c3cccc(NC(=O)Nc4ccc(Cl)c(C(F)(F)F)c4)c3)cc2-c2ccncc2)ccc1Cl; 2480

Name the reported TGI value associated with the compound `COc1cc(-c2nn(-c3cccc(NC(=O)Nc4cccc(C(F)(F)F)c4)c3)cc2-c2ccncc2)ccc1Cl`
2840

====

System: UACC-62
Experiment: Growth inhibition of human UACC62 cells assessed as cell growth at 10 uM after 48 hrs by sulforhodamine B assay
Type: functional
Details: UACC-62, 48 h, read-out: Activity
Recorded growth at 10 µM values for a group of compounds are listed next.
Remember to put the unit after the number in your answer.

COc1cc(-c2nn(-c3cccc(NC(=O)Nc4cccc(C(F)(F)F)c4)c3)cc2-c2ccncc2)ccc1Cl; -76.1%
O=C(Nc1cccc(-n2cc(-c3ccncc3)c(-c3ccc(Cl)c(O)c3)n2)c1)Nc1cc(C(F)(F)F)cc(C(F)(F)F)c1; -65.6%
O=C(Nc1cccc(-n2cc(-c3ccncc3)c(-c3ccc(Cl)c(O)c3)n2)c1)c1ccc(Cl)c(C(F)(F)F)c1; 100%

Here's the next entry for you.
Can you look up the measured growth at 10 µM of `COc1cc(-c2nn(-c3cccc(NC(=O)c4cccc(C(F)(F)F)c4)c3)cc2-c2ccncc2)ccc1Cl` for me?
27.2%

====

# growth at 0.005 µM values compiled below
System: K562
Assay: Growth inhibition of human K562 cells assessed as cell growth at 5X10'-9 M after 48 hrs by sulforhodamine B assay
Format: functional
Conditions: K562, 48 h, read-out: Activity
The reply should contain only the number, in %.

COc1cc(-c2nn(-c3cccc(NC(=O)Nc4ccc(Cl)c(Cl)c4)c3)cc2-c2ccncc2)ccc1Cl; 103
COc1cc(-c2nn(-c3cccc(NC(=O)Nc4cc(C(F)(F)F)cc(C(F)(F)F)c4)c3)cc2-c2ccncc2)ccc1Cl; 99
O=C(Nc1cccc(-n2cc(-c3ccncc3)c(-c3ccc(Cl)c(O)c3)n2)c1)Nc1cc(C(F)(F)F)cc(C(F)(F)F)c1; 105

Now let's try a different one.
Field request: growth at 0.005 µM | item: `COc1cc(-c2nn(-c3cccc(NC(=O)Nc4cccc(C(F)(F)F)c4)c3)cc2-c2ccncc2)ccc1Cl`
99

====

Listing: growth at 10 µM of selected compounds
Test system: PC-3
Assay: Growth inhibition of human PC3 cells assessed as cell growth at 10 uM after 48 hrs by sulforhodamine B assay
Type: functional
Conditions: PC-3, 48 h, read-out: Activity
Hi! Could you send only the number? It should be in %, unit omitted.

Here are 5 compounds together with their reported answers.
O=C(Nc1cccc(-n2cc(-c3ccncc3)c(-c3ccc(Cl)c(O)c3)n2)c1)c1ccc(Cl)c(C(F)(F)F)c1; 85.7
COc1cc(-c2nn(-c3cccc(NC(=O)c4ccc(Br)c(C)c4)c3)cc2-c2ccncc2)ccc1Cl; 59.4
COc1cc(-c2nn(-c3cccc(NC(=O)c4ccccc4)c3)cc2-c2ccncc2)ccc1Cl; 10.5
O=C(Nc1cccc(-n2cc(-c3ccncc3)c(-c3ccc(Cl)c(O)c3)n2)c1)Nc1ccc(Cl)c(C(F)(F)F)c1; -10.4
COc1cc(-c2nn(-c3cccc(NC(=O)Nc4cccc(C(F)(F)F)c4)c3)cc2-c2ccncc2)ccc1Cl; -23

Value wanted: growth at 10 µM (PC-3) of entry `O=C(Nc1cccc(-n2cc(-c3ccncc3)c(-c3ccc(Cl)c(O)c3)n2)c1)Nc1cc(C(F)(F)F)cc(C(F)(F)F)c1`
-32.4

Entry `COc1cc(-c2nn(-c3cccc(NC(=O)Nc4ccc(Cl)c(Cl)c4)c3)cc2-c2ccncc2)ccc1Cl` , system PC-3: what growth at 10 µM was measured?
-17.6
